assay: yeast display, Sf9 membrane polyspecificity reagent, FACS + sequencing; frameworks hold sequencing errors
MEASUREMENT_LABEL: polyreactivity (PSR sort gate)

entry_sequence=QVQLVESGGGLVQAGGSLRLSCSASGRTFRSNAMGWYRQAPGKEREFVAAIRSRGGSTYYADSVKGRFTISRDNAKNSVYLQMNSLKPEDTAVYYCADKHGSTSHDSWGQGTQVSVSS result_value="high polyreactivity"
entry_sequence=QVQLVESGGGLVQAGGSLRLSCAASGSTFYVNTMGGSRQAPGKERELVAAISGSGGSTYYADSVKGRFTISRDNAKNTVYLQMNCLKPEETAVYYCAAYGWRLWYRFNYWGQGTQVTVSS result_value="high polyreactivity"
entry_sequence=QVQLVESGGGLVQAGGSLRLSYAASGSTFHLYAMGWYRQAPGKERELVASINSGGSTYYADSVKGRFTISRDNAKNTVYLQMNSLKPEDTAVYYCAADAYSWWGRWERYPYTTMYYWGQGTQVTVSS result_value="low polyreactivity"
entry_sequence=QLQLEESGGGLVQAGGSLRLSCAASGRTFRYYSMGWYRHAPGKEREMVAAISSSGDRTYYADSVKGRFTISRDNATNTVYIQMNSLKPEDTAVYYCANVPYYSRPHDYWGQGTQVTVSS result_value="high polyreactivity"

Proceeding to the next sequence to report its polyreactivity (PSR sort gate).
Item QVQLVESGGGLVQAGGSLRLSCASSGNTFYGYAMGWYRQAPGKERELVASITLSGDSTYYADSVKGRFTISRDNAKNTVYLQMNSLKPEDTAVYYCAGVYTYPLGYYHYTYDYWGQGTQVTVSS : provide polyreactivity (PSR sort gate)
low polyreactivity

---

experiment: yeast display, Sf9 membrane polyspecificity reagent, FACS + sequencing; frameworks hold sequencing errors
MEASUREMENT_LABEL: polyreactivity (PSR sort gate)

entry_sequence=QVQLVESGGGLVKAGGSLRLSCAASGRTFRFYAMGWYRQAPGKEREFVAAISRSVGSTYYADSVKGRFTISRDNAKNTVYLQMNSLKPEDTAVYYCNADYRSRYVEYDYWGQGTQVTVSS result_value="high polyreactivity"
entry_sequence=QVQLVESGGGLVQAGGILRLSCAASGSIFSFYAMGWYRQAPGKERELVAAITRSGGTYYADSVKGRFTISRDNAKNTVYLQMNSLKPEDTAVYYCAAQYWYYYIWWEYYYWGQGTQVTVSS result_value="low polyreactivity"
entry_sequence=QVQLVESGGGLVQAGGSLRLSCAASGNIRNYGLGWYRQAPGKERELVAAITVSGSRTYYADSVKGRFTISRDNAKNTVYLQMNSLKPEDTAVSYCAARGYNTLTRYDYWGQGTQVTVTS result_value="high polyreactivity"
entry_sequence=QVQLVESGGGLVQAGGSLRLSCAASGFTGGRYAMGWYRQEPGKERELVDDISWSGGGTYYADSVKGRFTISRDNAKNTVYLQMNSLKPEDTAVYYCAAYWYRSYKRYGYWGQGTQVTVSS result_value="high polyreactivity"

Item QVQLVESGGGLVQAGGSLRLSCAASGRTFYYYAMGWYRQAPGKERELVARIRSGGSTNYADSVKGRFTISRDNAKNTVYLQMNSLKPEDTAVYYCNSMGAKGYVKGFDYWGQGTQVTVSS : provide polyreactivity (PSR sort gate)
low polyreactivity

---

test: yeast display, Sf9 membrane polyspecificity reagent, FACS + sequencing; frameworks hold sequencing errors
MEASUREMENT_LABEL: polyreactivity (PSR sort gate)

entry_sequence=QVQLVESGGGLVQAGGSLRLSCAASGFTLRYYAMGWYRQAPGKERELVAAITSGGGSTYYADSVKGRFTISRDNAKNTVYLQMNSLKPEDTAVYYCNAQYGSLYYAVVLSNIYNYWGQGTQVTVSS measurement_label="polyreactivity (PSR sort gate)" result_value="high polyreactivity"
entry_sequence=QVHLVESGGGLVQAGGSLRLSCAASGIIFSTYAMGWYRQAPGKERELVAAITSTGSTNYADSVKGRFTISRDNAKNTVYLQINRLKQEDTAVYYCAARYAGPSPTDTGHDYWGQGTQVTVSS measurement_label="polyreactivity (PSR sort gate)" result_value="low polyreactivity"
entry_sequence=QVQLVESGGGLVQAGGSLRLSCAASGSIFTKYAMGWYRQAPGKERELVAAITWSGGRTYYADSVKGRFTISRDNAKNTVYLQMNSLKPEDTAVYYCAADFFRQGYYYWGQGTQVTVSS measurement_label="polyreactivity (PSR sort gate)" result_value="high polyreactivity"
entry_sequence=QVQLVESGGGLVQAGGSLRLSCAASGLTFGAYAMGWYRQAPRKEREFVAAITYSGGSSNYADSVKGRFTISRDNAKNTVYLQMNSLKPEDTAVYYCNAGYYSPWAFYPYDYWGQGTQVTVSS measurement_label="polyreactivity (PSR sort gate)" result_value="high polyreactivity"
entry_sequence=QVQLVESGGGLVQAGGSLRLSCAASGFIQPYNTMGWYRQAPGKEREFVAAINYSGGRTYYADSVKGRFTISRDNAKNTVYLQMNRLKPEDTAVYYCAAARYPYRYKYNYWGQGTQVTVSS measurement_label="polyreactivity (PSR sort gate)" result_value="high polyreactivity"
entry_sequence=QVQLVESGVGLFQAGGSLRLSCAPSGSTFIGYAMEWYRQAPGKERELVAAISWSGGRTYYADSVKGRFTISRDNAKNTVYLQMISLKPEDTAVYYCNTVPYRISVQFNYWGQGTQVTLSS measurement_label="polyreactivity (PSR sort gate)" result_value="high polyreactivity"
entry_sequence=QVQLVESGGGLVQAGGSLRLSCAASGRIFNDYAMGWSRQAPGKERELVAVIRRSGVSTYYADSVKGRFTISRDNAKNTVYLQMNSLKPEDTAVYYCAAYGYWGQGTQVTVSS measurement_label="polyreactivity (PSR sort gate)" result_value="low polyreactivity"
entry_sequence=HVQLVESGGGLVQAGGSLRLSCAASGRTFTYNTMGVYRKEPGKERELVAAISSSGGSTYYADSVKGRFTISRDNAKNTVYLQMNSLKPEDTAVYYCAKRYFSSSRYYYWGQGTQVTVSS measurement_label="polyreactivity (PSR sort gate)" result_value="high polyreactivity"
entry_sequence=QVQLVESGGGLVQAGGSLRLSCAASGSIFELNAMGWYRQAPGKERELVAAITSSGSSTYYADSVKGRFTISRDNAKNTVYLQMNSLKPEDTAVYYCFRPHDYWGQGTQVTVSS measurement_label="polyreactivity (PSR sort gate)" result_value="low polyreactivity"
entry_sequence=QVQLVDSGGCLVQAGGSHRLSCSASGRIYPWYAMVWYRQAPGKERELVASITRNGGDTYYADSVKGRFTISRDNAKNTVYLQMNSLKPEDTAVYYCNAVRGYWFRQKDTIELGYWGQGTQVTVSS measurement_label="polyreactivity (PSR sort gate)" result_value="high polyreactivity"

Item QVQLVESGGGLVQAGGSLRLSCAASGFTFYRYAMGWYRQAPGKERELVAAITKSSGRTYYADSVKGRFTISRDNAQITVYLQINSLKPEDTAVYYCNAYYVALPPNMDYWGQGTQVTVSS : provide polyreactivity (PSR sort gate)
high polyreactivity

Item QVQLVESGGGLVQAGGSLRLSCAASGSTFQWNAMGWYRQAPGKERELVAAISKSGGRTYYADSVKGRFTISRDNAKNTVYLQMNSLKPEDTAVYYCNALGSLDGRYGYWGQGTQVTVSS : provide polyreactivity (PSR sort gate)
high polyreactivity

Item QVQLVESGGGLVQAGGSLRLICAASGIIFFDYAMGWYRQAPGKEREMVAAISSGGGNTYYADSVKGRFTISRDNAKNTVYLQMNSLKPEDTAVYYCAAEPYIYGEQGAYDYWGQGTQVTVSS : provide polyreactivity (PSR sort gate)
low polyreactivity

---

test: yeast display, Sf9 membrane polyspecificity reagent, FACS + sequencing; frameworks hold sequencing errors
MEASUREMENT_LABEL: polyreactivity (PSR sort gate)

Before answering, review these 6 worked examples.
entry_sequence=QVQLVESGGGLVQAGGSLRLSCAASGFTFYPYAMGWYRQAPGKERELVATISSGGTTNYADSVKGRFTISRDNAKNTVYLQMNSLKPEDTAVYYCAADYIRLFGPFDYWGQGTQVTVSS measurement_label="polyreactivity (PSR sort gate)" result_value="low polyreactivity"
entry_sequence=QVQLVESGGGLVQAGGSLRLSCAASGRIFTRYAMGWYRQAPGKERELVAAITGSGGSTYYADSVKGRFTISRDNAKNTVYLQMNSLKPEDTAVYYCNKVTGRNADRYGYWGQGTQVTVSS measurement_label="polyreactivity (PSR sort gate)" result_value="high polyreactivity"
entry_sequence=QVQLVESGGGLVQAGGSLRLSCAASGLTFRVYAMGWYRQEPGKERELVASISRTGSTTYADSVKGRFTISRDNAKNTVYLQMNSLKPEDTAVYYCNARYYVLLWDSLAREYWGQGTQVTVSS measurement_label="polyreactivity (PSR sort gate)" result_value="high polyreactivity"
entry_sequence=QVQLVESGGGLVQAGGSLRLSCAASGIIFIHYAMGWYRQAPGKERELVAAITSGGSTNYADSVKGRFTISRDNAKNTVYLQMNSLKPEDTAVYYCNAEPVASYYRVSDYEYWGQGTQVTVSS measurement_label="polyreactivity (PSR sort gate)" result_value="low polyreactivity"
entry_sequence=QVQLVESGGGLVQARGSLRLSCAASGFGWYAMGWYRQAPGKEREFVAAISRGGGSTYYADSVKGRFTISRDNAKNTVYLQMNSLKQEDTAVYYCAAVYYRRISQGDTQTYYQYNYWGQGTKVTVSS measurement_label="polyreactivity (PSR sort gate)" result_value="high polyreactivity"
entry_sequence=QVQLVESGGGLVQAGGSLRLSCAASGSTFPRNAMGWYRQAPGKERELVAAISYSGGRTYYADSVKGRFTISRDNAKNTVYLQMNSLKPEDTAVYYCAAQPYSHVRGKSYGYWGQGTQVTVSS measurement_label="polyreactivity (PSR sort gate)" result_value="high polyreactivity"

Proceeding to the next sequence to report its polyreactivity (PSR sort gate).
Item QVQLVESGGGLVQAGGSLRLSCAASGLTFVANAMGWYSQAPGKERELVARISSSGGSTYYADSVKGRFTISRDNAKNTVYLQMNSLKPEDTAVYYCASSQSGGYDYWGQGTQVTVSS : provide polyreactivity (PSR sort gate)
high polyreactivity
